Provide the reported Day 7 content (%) of each item.
Assay Info: Evaluation of dissolution stability (content change on storage in dissolved state)
Assay type: physicochemical
Condition Parameters: 1 mg/1 ml dissolved state, 40° C. and RH 75%, day 7
Where no end group is shown, it is not given here. [ ]: non-standard residue; d: D form. Hyp = O=C(O)[C@@H]1C[C@@H](O)CN1; Aib = CC(C)(N)C(=O)O
Answers are plain numbers, in %.

Record excerpt, results attached:
Substance: Hyp-Gly-Gln-Leu-Val-Leu-Ala ([Hyp]GQLVLA) [Example 97]
Measurement Kind: Day 7 content (%)
Units: %
Recorded Result: 94.08

Substance: Hyp-Gly-Gln-Leu-Leu-Leu ([Hyp]GQLLL) [Example 98]
Measurement Kind: Day 7 content (%)
Units: %
Recorded Result: 98.74

Substance: Hyp-Gly-Gln-Asn-Gly-Leu-Ala ([Hyp]GQNGLA) [Example 79]
Measurement Kind: Day 7 content (%)
Units: %
Recorded Result: 76.89

Substance: Hyp-Gly-Gln-Asp-Val-Leu-Ala ([Hyp]GQDVLA) [Example 23]
Measurement Kind: Day 7 content (%)
Units: %
Recorded Result: 90.56

Consider the additional substance presented here.
[ask] Entry Hyp-Gly-Gln-Aib-Gly-Leu ([Hyp]GQ[Aib]GL) [Example 84] : reported Day 7 content (%) = ?
[reply] 96.49

* * *

Assay Info: Evaluation of dissolution stability (content change on storage in dissolved state)
Format: physicochemical
Condition Parameters: 1 mg/1 ml dissolved state, 40° C. and RH 75%, day 3
*1 amine or outer side, *2 acyl side, *3 side chain or, on linkers, in order; H or OH if unused. Where no end group is shown, it is not given here. [ ]: non-standard residue; d: D form. The star is where a group is joined. Pro(trans-4-NH2) = O=C([C@@H]1C[C@@H](N[*:3])CN1[*:1])[*:2]; Pro(cis-4-F) = O=C(O)[C@@H]1C[C@H](F)CN1; Pro(4,4-F2) = O=C(O)[C@@H]1CC(F)(F)CN1; Hyp = O=C(O)[C@@H]1C[C@@H](O)CN1; Tle = CC(C)(C)[C@H](N)C(=O)O; Aib = CC(C)(N)C(=O)O; OiPr = CC(C)O*
Would you mind telling me the reported Day 3 content (%) of each entry?
Numbers only, in %.

For each listed entry, give its Day 3 content (%).
1. Hyp-Leu-Gln-Asp-Gly ([Hyp]LQDG) [Example 75]
2. Hyp-Gly-Gln-Asp-Gly-Leu-Ala ([Hyp]GQDGLA) [Example 12]
3. Hyp-Gly-Gln-Asp-Gly-Val-Ala ([Hyp]GQDGVA) [Example 72]
4. Hyp-Gly-Gln-Leu-Val-Leu-Ala ([Hyp]GQLVLA) [Example 97]
5. Hyp-Gly-Gln-Asp (isopropyl ester)-Gly-Leu ([Hyp]GQD(OiPr)GL) [Example 116]
6. 4,4-difluoro-Pro-Gly-Gln-Asp-Gly ([Pro(4,4-F2)]GQDG) [Example 43]
7. Hyp-Gly-Gln-His-Gly-Leu ([Hyp]GQHGL) [Example 82]
8. Hyp-Gly-Gln-Asp-Aib-Leu-Ala ([Hyp]GQD[Aib]LA) [Example 83]

[reply]
[75.24, 79.04, 90.84, 94.31, 84.31, 65.09, 85.09, 94.70]

State recorded Day 3 content (%) for all listed substances.
1. Hyp-Gly-Gln-Glu-Val-Leu ([Hyp]GQEVL) [Example 89]
2. Hyp-Gly-Gln-Glu-Gly-Leu-Ala ([Hyp]GQEGLA) [Example 69]
3. Hyp-Gly-Gln-Asp (isopropyl ester)-Gly-Leu (isopropyl ester) [Example 112]
4. PGQDGL [Example 77]
5. cis-4F-Pro-Gly-Gln-Asp-Gly ([Pro(cis-4-F)]GQDG) [Example 41]
6. Hyp-Gly-Gln-Leu-Leu-Leu-Ala ([Hyp]GQLLLA) [Example 96]

[reply]
1: 98.81; 2: 96.32; 3: 86.07; 4: 80.88; 5: 91.07; 6: 96.64

I have 7 substances here; please give me Day 3 content (%) for each one.
1. Hyp-Gly-Gln-Asp-Val-Leu [Example 34] ([Hyp]GQDVL)
2. Hyp-Gly-Gln-Leu-Val ([Hyp]GQLV) [Example 95]
3. Hyp-Gly-Gln-Glu-Val ([Hyp]GQEV) [Example 91]
4. Hyp-Gly-Gln-Ala-Leu ([Hyp]GQAL) [Example 120]
5. Hyp-Gly-Gln-Glu-Val-Leu-Ala ([Hyp]GQEVLA) [Example 87]
6. GLAGPK [Example 26]
7. Hyp-Gly-Gln-Glu-Leu ([Hyp]GQEL) [Example 90]

[reply]
95.50
98.10
98.74
98.73
96.57
87.99
98.32

Count: 3. Required value per item: Day 3 content (%).
1. Hyp-Gly-Gln-Asp-Gly-D Leu ([Hyp]GQDG[dL]) [Example 62]
2. DGLAGP [Example 31]
3. Hyp-Gly-Gln-His-Gly-Leu-Ala ([Hyp]GQHGLA) [Example 80]

[reply]
1. 84.99
2. 78.24
3. 97.13

Lab note: each substance below needs its Day 3 content (%) filled in.
1. trans-4NH2-Pro-Gly-Gln-Asp-Gly ([Pro(trans-4-NH2)]GQDG) [Example 42]
2. trans-4NH2-Pro-Gly-Gln-Asp-Gly-Leu ([Pro(trans-4-NH2)]GQDGL) [Example 47]
3. Hyp-Gly-Gln-Asp (isopropyl ester)-Gly-Leu-Ala ([Hyp]GQD(OiPr)GLA) [Example 117]
4. Hyp-Val-Gln-Asp-Gly ([Hyp]VQDG) [Example 74]
5. Hyp-Gly-Gln-Asp-Gly-Leu-Ala-Gly ([Hyp]GQDGLAG) [Example 15]
6. Hyp-Gly-Gln-Asp-Val ([Hyp]GQDV) [Example 21]
7. Hyp-Gly-Gln-Asp-Leu ([Hyp]GQDL) [Example 32]

[reply]
52.07
75.02
85.37
85.57
81.63
77.37
93.57

Report Day 3 content (%) for every entry below.
1. Hyp-Gly-Gln-Asp-Gly-Pro-Lys ([Hyp]GQDGPK) [Example 28]
2. LGLAGPK [Example 20]
3. Hyp-Gly-Gln-Asu-Gly-Leu (isopropyl ester) [Example 111]
4. QDGLAG [Example 30]

[reply]
1. 97.37
2. 99.69
3. 82.07
4. 94.27

For each listed entry, give its Day 3 content (%).
1. Hyp-Gly-Gln-Asp (isopropyl ester)-Gly ([Hyp]GQD(OiPr)G) [Example 115]
2. Hyp-Gly-Gln-D Asp-Gly-Leu ([Hyp]GQ[dD]GL) [Example 61]
3. Hyp-Gly-Gln-Asp (isopropyl ester)-Gly (isopropyl ester) [Example 110]

[reply]
82.00
83.70
72.44

Hi! Can you tell me Day 3 content (%) for each of these substances?
1. Hyp-Gly-Gln-Glu-tert Leu-Leu-Ala ([Hyp]GQE[Tle]LA) [Example 93]
2. QDGLAGPK [Example 16]

[reply]
1: 98.05; 2: 16.48
